# credit: paper PMC9352680

measured.on: T1, PUF4 RNA-binding domain (Saccharomyces cerevisiae, UniProt P25339 537-888)
T1 sequence: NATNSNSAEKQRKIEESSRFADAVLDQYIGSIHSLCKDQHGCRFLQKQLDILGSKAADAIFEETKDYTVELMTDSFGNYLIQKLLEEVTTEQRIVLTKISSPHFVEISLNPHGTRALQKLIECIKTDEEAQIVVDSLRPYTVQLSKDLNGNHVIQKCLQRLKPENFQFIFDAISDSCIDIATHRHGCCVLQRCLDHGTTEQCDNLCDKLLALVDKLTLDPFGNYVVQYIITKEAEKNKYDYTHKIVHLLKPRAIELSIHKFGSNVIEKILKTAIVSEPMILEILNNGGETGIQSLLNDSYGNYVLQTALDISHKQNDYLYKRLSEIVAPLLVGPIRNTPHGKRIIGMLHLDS
procedure.summary: Mg; RNA-MaP; 20 mM Na-HEPES pH 7.4, 30 mM KOAc, 0.75 mM MgCl2, 0.1% Tween-20, 5% glycerol, 0.1 mg/mL BSA, 2 mM DTT; 25 C; 0.0125-409.6 nM protein
condition.set: tags: N-His6-TEV cleaved; C-SNAP kept, Cy3B-labelled; label: tethered on chip by stalled RNA polymerase
# reported pKd; entries follow
Scale: negative log10 of molar concentration, which is what pKd denotes.

UCUCUUCAUGUAUUAUUAGCUCUCUU (ssRNA) [Id_ii_S1_P5E.2_K5.1_C5.2_[T-1A]_H5.1_A5.1_F5.1_T5.2_[T11G]_[A12C]]: 8.47
Id_i_S2_P3E.7_K3.3_C3.3_[T-3C]_[C-2A]_[T-1C]_H3.3_A3.1_F3.1_T3.2 (ssRNA) RNA: UUUGAUUAAUAUGAUAUCGUUCUUUCUCACACACUAUAUAUUCUUUCUCGAUAUCAUAUUAAUCUUU: 6.32

# input for lookup
(Q) What measured pKd goes with ACAAACUCUAUAUAUAUUACAAAC (ssRNA) [Id_ii_S3_P3E.3_K3.2_C3.2_[C-2T]_[T-1C]_H3.2_A3.1_F3.1_T3.2_[A10T]] ?
(A) 7.41
